B1: MATN2 (parent)
chain: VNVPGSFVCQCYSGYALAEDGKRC

# Variants of: B1
# run.description: protein stability index of a GFP-peptide fusion (GPS, HEK-293T) (PSI 1-6); higher = more stable;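 note: lentivirally expressed fusions sorted by FACS into six bins by GFP to DsRed ratio, PSI derived from sequencing read proportions per bin multiplied by bin number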
# experimental.conditions: c terminus: a fixed tail appended
attribute.measured: protein stability index

INSERT INTO assay_data (mut, reported_result) VALUES
  ('A16M', 1.79),
  ('G21I', 1.99),
  ('C11I', 1.72),
  ('A18T', 2),
  ('C9L', 2.05),
  ('G21K', 2.03),
  ('S13W', 3.15),
  ('E19R', 1.51),
  ('N2C', 2.12),
  ('Y15H', 1.91),
  ('V3Q', 2.26),
  ('S6G', 1.47),
  ('V8M', 2.79),
  ('F7H', 3.02),
  ('G14Y', 1.86),
  ('G14E', 2.91),
  ('P4F', 1.36),
  ('C9P', 3.06),
  ('R23H', 1.62),
  ('V3M', 2.21),
  ('C9H', 2.95),
  ('Y15E', 2.5),
  ('A16K', 1.91),
  ('S13Q', 1.5),
  ('N2P', 2.75),
  ('G21Y', 2.18),
  ('V8W', 3.21),
  ('A18F', 2.48),
  ('V1W', 2.91),
  ('Q10K', 1.7),
  ('C24K', 2.5),
  ('K22T', 2.6),
  ('A18Y', 2.84),
  ('Q10N', 2.31),
  ('G21E', 1.84),
  ('S13N', 2.45),
  ('S13L', 2.52),
  ('C9Y', 2.2),
  ('V8A', 2.16),
  ('L17Y', 2.44),
  ('C9S', 3.15),
  ('N2Q', 2.28),
  ('Q10P', 2.15),
  ('S13R', 1.85),
  ('F7V', 2.19),
  ('N2D', 2.19);

Taken from the supplement of paper PMC10567573.
